Experiment: Half life in healthy human subjects at 8 mg/kg, iv administered as 30 mins infusion every 24 hrs measured on day 4
Format: ADME, organism-based
Design: dose 8 mg/kg, route intravenous
Details: in vivo
endpointLabel: half-life (h)
Use h as the unit, but write only the number.

CCCCCCCCCC(=O)N[C@@H](Cc1c[nH]c2ccccc12)C(=O)N[C@H](CC(N)=O)C(=O)N[C@@H](CC(=O)O)C(=O)N[C@@H]1C(=O)NCC(=O)N[C@@H](CCCN)C(=O)N[C@@H](CC(=O)O)C(=O)N[C@H](C)C(=O)N[C@@H](CC(=O)O)C(=O)NCC(=O)N[C@H](CO)C(=O)N[C@@H]([C@H](C)CC(=O)O)C(=O)N[C@@H](CC(=O)c2ccccc2N)C(=O)O[C@@H]1C has a reported half-life of 8.3

---

Experiment: Clearance in healthy human subjects at 10 mg/kg, iv administered as 30 mins infusion every 24 hrs measured on day 14
Assay type: ADME, organism-based
Design: dose 10 mg/kg, route intravenous
Conditions: in vivo
endpointLabel: clearance (mL/min/kg)
Enter your answer as a number in mL/min/kg; do not include the unit.

Lab note: measured clearance of CCCCCCCCCC(=O)N[C@@H](Cc1c[nH]c2ccccc12)C(=O)N[C@H](CC(N)=O)C(=O)N[C@@H](CC(=O)O)C(=O)N[C@@H]1C(=O)NCC(=O)N[C@@H](CCCN)C(=O)N[C@@H](CC(=O)O)C(=O)N[C@H](C)C(=O)N[C@@H](CC(=O)O)C(=O)NCC(=O)N[C@H](CO)C(=O)N[C@@H]([C@H](C)CC(=O)O)C(=O)N[C@@H](CC(=O)c2ccccc2N)C(=O)O[C@@H]1C was 0.125

---

Test: Volume of distribution at steady state in adult human subjects at 6 mg/kg, iv administered as single dose 30 mins infusion
Type: ADME, organism-based
Design: dose 6 mg/kg, route intravenous
Conditions: in vivo, read-out: Vdss
endpointLabel: Vd (L/kg)
# unit: L/kg | format: bare number

// sample CCCCCCCCCC(=O)N[C@@H](Cc1c[nH]c2ccccc12)C(=O)N[C@H](CC(N)=O)C(=O)N[C@@H](CC(=O)O)C(=O)N[C@@H]1C(=O)NCC(=O)N[C@@H](CCCN)C(=O)N[C@@H](CC(=O)O)C(=O)N[C@H](C)C(=O)N[C@@H](CC(=O)O)C(=O)NCC(=O)N[C@H](CO)C(=O)N[C@@H]([C@H](C)CC(=O)O)C(=O)N[C@@H](CC(=O)c2ccccc2N)C(=O)O[C@@H]1C , its Vd was 0.08

---

Experiment: AUC (0 to infinity) in healthy adult human at 6 mg/kg, iv administered as single dose 30 mins infusion
Format: ADME, organism-based
Parameters: dose 6 mg/kg, route intravenous, time infinity
Conditions: plasma
endpointLabel: AUC(0-inf) (µg·h/mL)
I only need the number, in µg·h/mL, no unit after it.

What the record says about CCCCCCCCCC(=O)N[C@@H](Cc1c[nH]c2ccccc12)C(=O)N[C@H](CC(N)=O)C(=O)N[C@@H](CC(=O)O)C(=O)N[C@@H]1C(=O)NCC(=O)N[C@@H](CCCN)C(=O)N[C@@H](CC(=O)O)C(=O)N[C@H](C)C(=O)N[C@@H](CC(=O)O)C(=O)NCC(=O)N[C@H](CO)C(=O)N[C@@H]([C@H](C)CC(=O)O)C(=O)N[C@@H](CC(=O)c2ccccc2N)C(=O)O[C@@H]1C : AUC(0-inf) is 598
